ASSAY TEXT: Vasorelaxant activity against U46619-induced contraction in bovine coronary artery ring treated after U46619 challenge
Type: functional, tissue-based
RECORDED CONDITIONS: Bos taurus, read-out: EC50
EC50 values for the molecules below.
Give the quantity in µM, number only.

Solved entries (count: 5):
* CCCCCNC(=O)NCCCCC#CCCCCCCC(=O)O | 3.1
* CCCCCCNC(=O)CCCC/C=C\CCCCCCC(=O)O | 4.9
* CCCCCCC(=O)N(C)CCCC/C=C\CCCCCCC(=O)O | 4.3
* CCCCCN(C)C(=O)NCCCC/C=C\CCCCCCC(=O)O | 3.2
* CCCCCCC(=O)NCCCC/C=C\CCCCCCC(=O)O | 6.1

Now for the molecule whose EC50 we want.
[Q] State the recorded EC50 for this entry: `CCCCCc1cn(CCCC/C=C\CCCCCCC(=O)[O-])nn1.[Na+]`
[A] 6.2

meta.source: ChEMBL document CHEMBL1151961
